- Protocol summary: Tissue bio-distribution and tissue pharmacokinetics of DMA
- Type: in vivo, mouse
- Test conditions: Balb/c, mouse, kidney, iv; i.v. 50 mg/kg, 6 h; read-out: Tissue DMA concentration, Kidney
Quantity measured: concentration at 6 h (ng/g)
Report the figure in ng/g without appending any unit label.

Value of concentration at 6 h reported for the compound COc1ccc(-c2nc3cc(-c4nc5cc(N6CCN(C)CC6)ccc5[nH]4)ccc3[nH]2)cc1OC is 707

* * *

- Protocol summary: Tissue bio-distribution and tissue pharmacokinetics of DMA
- Type: in vivo, mouse
- Test conditions: Balb/c, mouse, spleen, iv; i.v. 50 mg/kg, 4 h; read-out: Tissue DMA concentration, Spleen
Quantity measured: concentration at 4 h (ng/g)
Report the figure in ng/g without appending any unit label.

Value of concentration at 4 h reported for the compound COc1ccc(-c2nc3cc(-c4nc5cc(N6CCN(C)CC6)ccc5[nH]4)ccc3[nH]2)cc1OC [DMA] is 2090
